targetOrSystem: T1, human GIP receptor (human, UniProt P48546 22-466)
T1 sequence (looked up): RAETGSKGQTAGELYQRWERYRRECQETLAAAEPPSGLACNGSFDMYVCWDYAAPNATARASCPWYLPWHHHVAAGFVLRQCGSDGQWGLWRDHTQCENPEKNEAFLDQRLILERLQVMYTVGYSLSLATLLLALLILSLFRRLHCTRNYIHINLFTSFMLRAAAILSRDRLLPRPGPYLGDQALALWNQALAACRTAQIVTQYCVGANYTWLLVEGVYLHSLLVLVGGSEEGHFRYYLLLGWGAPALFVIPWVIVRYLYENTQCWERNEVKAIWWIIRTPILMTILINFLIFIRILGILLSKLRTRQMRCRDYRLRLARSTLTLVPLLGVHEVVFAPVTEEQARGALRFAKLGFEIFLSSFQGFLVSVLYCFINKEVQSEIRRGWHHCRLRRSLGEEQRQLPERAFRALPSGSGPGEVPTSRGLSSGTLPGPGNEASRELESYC
experimentalDetails: cell-based or functional assay
Bridge positions count the residues as written; N and C are the ends. Square brackets hold non-standard residues; d marks the D form. Ends that are not written are not given here. * marks the point of attachment. Acetyl(2-(4-imidazolyl)) = O=C(Cc1c[nH]cn1)*; Aib = CC(C)(N)C(=O)O
Consider the following binders and their measured In vitro activity (%) compared with native peptide, vs GIP readings.
measurementKind: In vitro activity (%) compared with native peptide, vs GIP

binder	unitTag	readoutRelation	testResult
{Acetyl(2-(4-imidazolyl))}-[Aib]EGTFTSDYSIAMDEIHQKDFVDWLLAEKC (bridge 15-19; numbers in words are those of the source; also: ring between positions 16 and 20, type not given here) [triple agonist of SEQ ID NO: 91]	%	=	0.3
[Acetyl(2-(4-imidazolyl))][Aib]QGTFTSDKSKYLDERAAQDFVQWLLDGGPSSGAPPPS (not fully specified) [triple agonist of SEQ ID NO: 62]	%	<	0.1
